Could you please report measured Max MFI for the items listed next?
measurement.target: T1, human CD24 (human, UniProt P25063 27-59, heavily glycosylated, GPI-anchored (as described in the background))
T1 construct: whole, on cells; Target of all cell-based FACS assays; also called hCD24; Cluster of differentiation 24
T1 chain (looked up): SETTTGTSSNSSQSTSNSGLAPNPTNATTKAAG
method.notes: FACS, Nalm1 cells
Numbers only.

Recorded Max MFI, per entry:
100F2E3 (antibody, V domains shown, mouse monoclonal antibody) VH: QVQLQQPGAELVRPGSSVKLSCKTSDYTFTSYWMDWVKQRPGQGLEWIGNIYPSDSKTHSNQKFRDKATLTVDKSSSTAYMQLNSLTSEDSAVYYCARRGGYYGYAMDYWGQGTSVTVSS VL: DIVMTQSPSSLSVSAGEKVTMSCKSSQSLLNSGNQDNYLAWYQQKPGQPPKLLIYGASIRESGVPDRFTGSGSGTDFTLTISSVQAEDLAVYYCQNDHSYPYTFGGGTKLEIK | 58800
ch56A7E3-hIgG4 (antibody, V domains shown, chimeric) VH: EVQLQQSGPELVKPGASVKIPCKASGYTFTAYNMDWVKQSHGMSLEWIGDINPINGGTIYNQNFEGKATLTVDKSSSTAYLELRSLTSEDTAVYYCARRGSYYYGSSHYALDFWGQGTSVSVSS VL: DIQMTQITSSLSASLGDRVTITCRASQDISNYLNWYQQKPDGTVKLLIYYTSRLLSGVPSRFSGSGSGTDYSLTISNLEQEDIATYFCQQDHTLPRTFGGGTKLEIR | 80300
81A1F8 (antibody, V domains shown, mouse monoclonal antibody) VH: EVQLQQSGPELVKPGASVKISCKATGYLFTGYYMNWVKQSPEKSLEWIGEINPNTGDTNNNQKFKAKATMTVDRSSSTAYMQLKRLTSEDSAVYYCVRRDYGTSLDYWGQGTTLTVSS VL: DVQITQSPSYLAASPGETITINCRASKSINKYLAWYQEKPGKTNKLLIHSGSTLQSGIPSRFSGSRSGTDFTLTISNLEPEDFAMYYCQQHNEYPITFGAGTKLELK | 24800

Consider the additional binder presented here.
Problem: Endpoint output: Max MFI of ch81A1F8-hIgG4 (antibody, V domains shown, chimeric; also called chAb81A1F8; ch81A1F8-IgG4) VH: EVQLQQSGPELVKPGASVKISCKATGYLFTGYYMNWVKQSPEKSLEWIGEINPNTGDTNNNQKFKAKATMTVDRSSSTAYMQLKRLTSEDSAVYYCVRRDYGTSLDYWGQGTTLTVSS VL: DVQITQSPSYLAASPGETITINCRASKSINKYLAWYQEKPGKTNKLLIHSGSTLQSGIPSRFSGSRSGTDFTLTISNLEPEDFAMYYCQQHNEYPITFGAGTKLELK . Value?
Result: 101000

These measurements were taken from patent US20240052052A1.
